Target: cyclin D1/cdk 4 enzyme (Homo sapiens, UniProt P11802)
Construct: made in house; host or cells: Sf9 insect cells, recombinant baculovirus
Sequence (P11802 whole entry, species assumed): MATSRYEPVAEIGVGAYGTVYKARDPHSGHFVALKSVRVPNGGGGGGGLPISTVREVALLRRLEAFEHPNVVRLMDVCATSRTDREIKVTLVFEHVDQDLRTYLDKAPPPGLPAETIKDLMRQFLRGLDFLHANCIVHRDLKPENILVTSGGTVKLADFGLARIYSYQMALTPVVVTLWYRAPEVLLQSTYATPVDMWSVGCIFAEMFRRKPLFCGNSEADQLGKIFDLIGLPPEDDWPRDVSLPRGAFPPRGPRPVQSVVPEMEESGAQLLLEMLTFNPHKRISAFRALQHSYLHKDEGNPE
Sequence (P24385 whole entry partner, species assumed): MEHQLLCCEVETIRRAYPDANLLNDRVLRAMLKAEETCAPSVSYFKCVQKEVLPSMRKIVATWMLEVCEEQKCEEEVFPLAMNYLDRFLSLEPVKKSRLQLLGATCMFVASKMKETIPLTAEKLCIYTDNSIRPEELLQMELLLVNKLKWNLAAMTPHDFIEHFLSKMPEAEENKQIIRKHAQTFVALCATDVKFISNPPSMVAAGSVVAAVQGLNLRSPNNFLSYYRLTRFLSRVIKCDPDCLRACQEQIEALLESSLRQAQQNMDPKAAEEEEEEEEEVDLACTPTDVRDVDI
Experiment: CDK4 ELISA kinase assay (phospho-Rb ser 795 detection)
Format: biochemical
Details: In Vitro Enzyme Assay, cyclin D1/cdk 4, read-out: CDK4 IC50
Rule: IC50 below 2 µM gives t, anything at or above gives f.

>>> print(df.to_string())
                           substance_smiles                            assayed_target  assigned_label
0  CN1CCN(c2ccc(NC=C3C(=O)NCc4cc(Br)ccc43)cc2)CC1  cyclin D1/cdk 4 enzyme (Homo sapiens, UniProt P11802)               f
1  O=C(O)C=Cc1ccc(NC=C2C(=O)NC(=O)c3ccccc32)cc1  cyclin D1/cdk 4 enzyme (Homo sapiens, UniProt P11802)               f
2  C=CCN1CCN(c2ccc(NC=C3C(=O)NC(=O)c4ccccc43)cc2)CC1  cyclin D1/cdk 4 enzyme (Homo sapiens, UniProt P11802)               f
3  CC(=O)c1ccc(-c2ccc3c(c2)C(=CNCc2ccc(S(N)(=O)=O)cc2)C(=O)NC3=O)cc1  cyclin D1/cdk 4 enzyme (Homo sapiens, UniProt P11802)               t
4  CC(C)c1ccc(-c2ccc3c(c2)C(=CNc2ccc(CC#N)cc2)C(=O)NC3=O)cc1  cyclin D1/cdk 4 enzyme (Homo sapiens, UniProt P11802)               f
5  COc1ccc(CNC=C2C(=O)NC(=O)c3ccc(C=Cc4ccccc4)cc32)cc1O  cyclin D1/cdk 4 enzyme (Homo sapiens, UniProt P11802)               t
6  N#CCc1ccc(NC=C2C(=O)NC(=O)c3ccc(-c4ccc(-c5ccccc5)cc4)cc32)cc1  cyclin D1/cdk 4 enzyme (Homo sapiens, UniProt P11802)               f
7  Nc1cccc(-c2ccc3c(c2)C(=CNCc2ccc(O)c(O)c2)C(=O)NC3=O)c1  cyclin D1/cdk 4 enzyme (Homo sapiens, UniProt P11802)               t
